Source: patent US11000511B2

biological target: purified LasB protein from P. aeruginosa (Pseudomonas aeruginosa); construct: purchased Merck or Charles River Laboratories; experiment: Fluorometric assay to determine Ki (Assay 1); type: biochemical; settings: Ki (μM) Assay 1, purified LasB, substrate Abz-Ala-Gly-Leu-Ala-p-Nitro-Benzyl-Amide 250 μM, Ki calculated from IC50; inhibitor 0.006 to 200 μM
Sequence (P14756 198-498): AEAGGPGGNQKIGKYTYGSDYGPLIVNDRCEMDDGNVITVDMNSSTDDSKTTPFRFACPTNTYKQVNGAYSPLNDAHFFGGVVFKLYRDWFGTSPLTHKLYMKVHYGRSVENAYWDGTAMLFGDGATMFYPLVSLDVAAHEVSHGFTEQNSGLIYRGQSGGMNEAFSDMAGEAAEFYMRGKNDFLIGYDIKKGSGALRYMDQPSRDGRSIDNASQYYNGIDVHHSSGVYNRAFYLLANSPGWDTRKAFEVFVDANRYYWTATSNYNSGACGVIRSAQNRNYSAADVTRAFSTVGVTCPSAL
Each entry below carries its recorded Ki.
endpoint name: Ki

1) O=C(O)CC1(C(=O)NCc2cc3ccccc3o2)Cc2ccccc2C1 ... 0.3 to 2 µM
2) C[N+](C)(C)C1CN(c2ccc3nc(CNC(=O)C4(CC(=O)[O-])Cc5ccccc5C4)sc3c2)C1 ... 0.3 to 2 µM
3) O=C(O)CC1(C(=O)NCc2nc3ccc(N4CCNCC4)cc3s2)Cc2ccccc2C1 ... 0.3 to 2 µM
4) Cn1cc(CNC(=O)C2(CC(=O)O)Cc3ccccc3C2)cn1 ... 2 to 10 µM
5) Cc1nnc([C@H](Cc2c[nH]c3ccccc23)NC(=O)C2(CC(=O)O)Cc3ccccc3C2)o1 ... 0.3 to 2 µM
6) O=C(O)CC1(C(=O)N[C@H](CO)Cc2c[nH]c3ccccc23)Cc2ccccc2C1 ... 0.3 to 2 µM
7) CN(C)CCCc1ccc2nc(CNC(=O)C3(CC(=O)O)Cc4ccccc4C3)sc2c1 ... < 0.3 µM
8) NC/C=C/c1ccc2sc(CNC(=O)C3(CC(=O)O)Cc4ccccc4C3)nc2c1 ... 0.3 to 2 µM
9) CN(C)C1CN(c2ccc3nc(CNC(=O)C4(CC(=O)O)Cc5ccccc5C4)sc3c2)C1 ... 0.3 to 2 µM
10) Cc1ccc2c(c1)CC(CNC(=O)C1(CC(=O)O)Cc3ccccc3C1)O2 (stereo not shown) ... < 0.3 µM

* * *

// Ki lookup, one value per entry
molecular target: purified LasB protein from P. aeruginosa (Pseudomonas aeruginosa); construct: purchased Merck or Charles River Laboratories; assay: Fluorometric assay to determine Ki (Assay 1); format: biochemical; conditions: Ki (μM) Assay 1, purified LasB, substrate Abz-Ala-Gly-Leu-Ala-p-Nitro-Benzyl-Amide 250 μM, Ki calculated from IC50; inhibitor 0.006 to 200 μM
endpoint name: Ki

1. NCCc1ccc2sc(CNC(=O)C3(CC(=O)O)Cc4ccccc4C3)nc2c1 [Example 83] ... 0.3 to 2 µM
2. Cc1oc2ccccc2c1CNC(=O)C1(CC(=O)O)Cc2ccccc2C1 [Example 20] ... 2 to 10 µM
3. O=C(O)CC1(C(=O)NCc2nc3cc(Cl)ccc3s2)Cc2ccccc2C1 [Example 25] ... < 0.3 µM
4. CC(C)(N)c1nnc([C@H](Cc2c[nH]c3ccccc23)NC(=O)C2(CC(=O)O)Cc3ccccc3C2)o1 [Example 119] ... 0.3 to 2 µM
5. COC(=O)[C@H](Cc1c[nH]c2ccccc12)NC(=O)C1(CC(=O)O)Cc2ccccc2C1 [Example 53] ... 0.3 to 2 µM
6. C[N+](C)(C)CCc1ccc2sc(CNC(=O)C3(CC(=O)[O-])Cc4ccccc4C3)nc2c1 [Example 98] ... 0.3 to 2 µM
7. O=C(O)CC1(C(=O)NCc2nc3cc(Cl)ccc3[nH]2)Cc2ccccc2C1 [Example 1] ... 0.3 to 2 µM
8. CN1CC2(C1)CN(c1ccc3nc(CNC(=O)C4(CC(=O)O)Cc5ccccc5C4)sc3c1)C2 [Example 71] ... < 0.3 µM
9. NC(=O)[C@H](Cc1c[nH]c2ccccc12)NC(=O)C1(CC(=O)O)Cc2ccccc2C1 [Example 52] ... < 0.3 µM
10. O=C(O)CC1(C(=O)NCc2cc3ccccc3s2)Cc2ccccc2C1 [Example 23] ... < 0.3 µM
